# Assayed target: human TLR9 (Homo sapiens)
# Sequence (Q9NR96 26-1032): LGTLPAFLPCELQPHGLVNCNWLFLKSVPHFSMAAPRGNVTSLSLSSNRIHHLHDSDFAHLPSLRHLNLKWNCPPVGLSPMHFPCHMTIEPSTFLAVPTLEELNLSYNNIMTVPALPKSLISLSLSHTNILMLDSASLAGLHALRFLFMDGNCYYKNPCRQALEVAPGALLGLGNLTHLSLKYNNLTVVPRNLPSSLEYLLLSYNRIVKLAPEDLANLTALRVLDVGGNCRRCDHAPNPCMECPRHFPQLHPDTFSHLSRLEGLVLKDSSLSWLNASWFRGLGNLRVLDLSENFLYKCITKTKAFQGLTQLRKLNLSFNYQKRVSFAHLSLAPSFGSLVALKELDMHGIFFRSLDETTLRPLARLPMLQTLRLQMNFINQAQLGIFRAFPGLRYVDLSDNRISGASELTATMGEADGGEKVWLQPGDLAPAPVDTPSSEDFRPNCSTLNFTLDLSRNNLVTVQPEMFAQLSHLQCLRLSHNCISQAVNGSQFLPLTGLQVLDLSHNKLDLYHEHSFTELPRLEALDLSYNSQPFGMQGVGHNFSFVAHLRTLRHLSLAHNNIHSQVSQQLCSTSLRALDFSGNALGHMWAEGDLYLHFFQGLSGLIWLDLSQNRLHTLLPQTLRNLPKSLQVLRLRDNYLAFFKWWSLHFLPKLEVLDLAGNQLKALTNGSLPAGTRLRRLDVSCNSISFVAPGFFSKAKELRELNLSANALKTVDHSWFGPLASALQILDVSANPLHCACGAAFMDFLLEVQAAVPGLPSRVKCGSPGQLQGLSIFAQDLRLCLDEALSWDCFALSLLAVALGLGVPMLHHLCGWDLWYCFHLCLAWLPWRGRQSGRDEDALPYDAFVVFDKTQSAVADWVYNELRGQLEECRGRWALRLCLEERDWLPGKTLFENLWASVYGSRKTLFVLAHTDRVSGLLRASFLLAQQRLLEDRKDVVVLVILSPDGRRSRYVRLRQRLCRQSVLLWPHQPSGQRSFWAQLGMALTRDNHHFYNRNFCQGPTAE
# Assay overview: TLR9 inhibition reporter assay (HEK-Blue cells, SEAP reporter)
# Condition: HEK-Blue cells overexpressing human TLR9; stimulated with ODN2006 5 nM; SEAP after 22 hour incubation
Measured IC50 accompanies every entry in the list below.
Measure: IC50 (nM)

>>> df
                                   compound  unit_name  endpoint_result
0  CC(C)N1CCN(c2ccc(-c3cnc4cc(-c5cccc(S(=O)(=O)N(C)C)c5)n(C)c4c3)cc2)CC1         nM               76
1  CC(C)N1C2CCC1CN(c1ccc(-c3cnc4cc(-c5ccc(S(C)(=O)=O)cc5)n(C)c4c3)cc1)C2         nM               94
2  COc1ccc(-c2cc3ccc(-c4ccc(N5CCN(C(C)C)CC5)cc4)nc3n2C)cc1OC         nM             4580
3  Cn1c(-c2ccc(S(C)(=O)=O)cc2)cc2ncc(-c3ccc(N4CCN5CCCC5C4)cc3)cc21 (stereo not shown)         nM              275
4  CC(C)N1CCN(c2ccc(-c3cnc4cc(-c5ccc(S(C)(=O)=O)cc5)n(C)c4c3)cc2)C[C@@H]1C         nM              722
5  Cn1c(-c2ccc(S(C)(=O)=O)cc2)cc2ncc(-c3ccc(N4CCNCC4)cc3)cc21         nM              171
6  CC(C)CN1[C@@H]2CC[C@H]1C[C@@H](N1CCC(c3cnc4cc(-c5ccc(S(=O)(=O)C6CC6)cc5)n(C)c4c3)CC1)C2         nM              410

The measurements presented in this section are drawn from patent US20230322770A1.
